Below, each entry is listed alongside its reported pIC50.
Biological target: Human immunodeficiency virus type 1 integrase (Human immunodeficiency virus 1, UniProt Q7ZJM1)
Sequence (Q7ZJM1 whole entry): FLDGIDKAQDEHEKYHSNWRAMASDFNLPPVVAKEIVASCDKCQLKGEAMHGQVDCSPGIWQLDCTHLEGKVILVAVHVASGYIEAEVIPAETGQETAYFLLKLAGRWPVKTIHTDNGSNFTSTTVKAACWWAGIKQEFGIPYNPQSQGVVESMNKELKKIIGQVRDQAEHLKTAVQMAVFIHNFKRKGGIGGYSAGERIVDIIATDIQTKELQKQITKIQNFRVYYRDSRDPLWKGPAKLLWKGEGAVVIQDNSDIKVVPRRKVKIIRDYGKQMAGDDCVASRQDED
Test: Inhibitory activity against DNA strand transfer by HIV integrase
Field pIC50 (float): negative decimal logarithm of the concentration in molar.

Solved cases (4 shown):
• Cc1cc(S(=O)(=O)Nc2nnc3c4ccccc4ccn23)c(S)cc1Cl = 4.97
• Cc1cc2c(cc1Cl)SC(C(C#N)C(=O)c1ccccc1)NS2(=O)=O (stereo not given) = 3.95
• Cc1cc(S(=O)(=O)Nc2nc(N)n(-c3ccccc3)n2)c(S)cc1Cl = 4.88
• CCCn1cnnc1NS(=O)(=O)c1cc(C(=O)Nc2ccc(C)cc2)c(Cl)cc1SCC(=O)O = 4.36

Looking up `Cc1cc(S(=O)(=O)Nc2nc3ccccc3nc2-c2ccc(Br)cc2)c(S)cc1Cl` , I see its pIC50 listed as 5.10
